Test system: murine TTC39B mRNA
assay.explanation: Dose-dependent antisense inhibition of murine TTC39B in mouse primary hepatocytes (Example 2)
Type: cell-based
condition.details: 100 nM, cytofectin, ~16 h
Oligonucleotides are written 5' to 3', each unit as a sugar letter and its base; * is a phosphorothioate linkage, no mark a phosphodiester; rarer units and linkages stand in square brackets, end groups in braces. Plain capitals give the bases only. e = 2'-O-(2-methoxyethyl) (MOE); [5mC] = 5-methylcytosine; d = 2'-deoxy (DNA)
percent inhibition of TTC39B mRNA by entry:

GTTGCCTTGGACCATTTACT (antisense eG*eT*eT*eG*e[5mC]*d[5mC]*dT*dT*dG*dG*dA*d[5mC]*d[5mC]*dA*dT*eT*eT*eA*e[5mC]*eT) [ISIS 447122]: 78%
GAGTCCACCTTTGATGAAGT (antisense eG*eA*eG*eT*e[5mC]*d[5mC]*dA*d[5mC]*d[5mC]*dT*dT*dT*dG*dA*dT*eG*eA*eA*eG*eT) [ISIS 447110]: 77%
ATGCCATTCTGGATGTCCTG (antisense eA*eT*eG*e[5mC]*e[5mC]*dA*dT*dT*d[5mC]*dT*dG*dG*dA*dT*dG*eT*e[5mC]*e[5mC]*eT*eG) [ISIS 447106]: 78%

Request: Sample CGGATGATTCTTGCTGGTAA (antisense e[5mC]*eG*eG*eA*eT*dG*dA*dT*dT*d[5mC]*dT*dT*dG*d[5mC]*dT*eG*eG*eT*eA*eA) [ISIS 447114] — what was its percent inhibition of TTC39B mRNA?
Response: 85%

Request: Sample GGCACTCTTTATATATTTGG (antisense eG*eG*e[5mC]*eA*e[5mC]*dT*d[5mC]*dT*dT*dT*dA*dT*dA*dT*dA*eT*eT*eT*eG*eG) [ISIS 447111] — what was its percent inhibition of TTC39B mRNA?
Response: 77%
